Experimental Setup: Liquid
Examples of compounds with documented Normal boiling temperature follow.
Kindly answer with a numeric value in °C, unit omitted.

# Compound, Unit Text, Normal boiling temperature
data = [
    ("CC(C)(C)Cl", "°C", 50.73),
    ("CC(C)CCl", "°C", 68.90),
    ("CCC(C)Cl (stereo not given)", "°C", 68.11),
    ("CCCCCl", "°C", 78.37),
]

Value lookup for Normal boiling temperature; key = C1CCOCC1 [tetrahydropyran] 88.08

----------
Experimental Setup: 298.15 K; 101.33 kPa; Liquid
Examples of compounds with documented mass density follow.
Kindly answer with a numeric value in kg/m3, unit omitted.

Some compounds with known mass density results, for comparison:
# Compound, Experimental Readout, Unit Text, Result Number
data = [
    ("CCCCCl [1-chlorobutane]", "mass density", "kg/m3", 880.67),
    ("CC(C)CCl [1-chloro-2-methylpropane]", "mass density", "kg/m3", 870.94),
    ("CC(C)(C)Cl [2-chloro-2-methylpropane]", "mass density", "kg/m3", 836.45),
]

Then there is this compound:
Value lookup for mass density; key = CCC(C)Cl (centres undefined) [2-chlorobutane] 867.26
